Biological target: human mAChR M4 (Homo sapiens, UniProt P08173)
Construct: expressed in transfected cells; host or cells: CHO-K1 (ATCC), stably expressing hM4 and Gqi5
Assay: mAChR M4 cell-based functional assay: calcium flux (Fluo-4, FDSS), positive allosteric modulator activity on the EC20 acetylcholine response, hM4-Gqi5 CHO-K1 cells
Settings: CHO-K1, human M4; % ACh maximum at 30 μM
measure: Emax at 30 µM

compound=Fc1cc2ncnc(N3CCc4ncc(CC(F)(F)F)cc4C3)c2cc1F measure="Emax at 30 µM" assay_value=97%
compound=Cc1nc(N2CCc3ncc(-c4cnn(C)c4)cc3C2)c2cc(F)ccc2n1 measure="Emax at 30 µM" assay_value=90%
compound=Cc1nc(N2CCc3ncc(-c4cn(C)nc4C)cc3C2)c2cc(C(F)(F)F)ccc2n1 measure="Emax at 30 µM" assay_value=59%
compound=CC(C)n1nccc1-c1cnc2c(c1)CN(c1ncnc3ccc(F)cc13)CC2 measure="Emax at 30 µM" assay_value=82%
compound="Cc1nc(N2CCc3ncc(N4CCOC(c5cccnc5)C4)cc3C2)c2cc(F)ccc2n1 (centres unmarked)" measure="Emax at 30 µM" assay_value=86%
compound=Cc1ccc(F)cc1-c1cnc2c(c1)CN(c1ncnc3ccc(F)cc13)CC2 measure="Emax at 30 µM" assay_value=80%
compound=Cc1cnn(C)c1-c1cnc2c(c1)CN(c1ncnc3ccc(F)cc13)CC2 measure="Emax at 30 µM" assay_value=90%
compound=Cc1nc(N2Cc3cc(C(F)(F)F)cnc3C(C)(C)C2)c2cc(F)ccc2n1 measure="Emax at 30 µM" assay_value=63%

---

Molecular target: human mAChR M4 (Homo sapiens, UniProt P08173)
Construct: expressed in transfected cells; host or cells: CHO-K1 (ATCC), stably expressing hM4 and Gqi5
Sequence (P08173 1-479): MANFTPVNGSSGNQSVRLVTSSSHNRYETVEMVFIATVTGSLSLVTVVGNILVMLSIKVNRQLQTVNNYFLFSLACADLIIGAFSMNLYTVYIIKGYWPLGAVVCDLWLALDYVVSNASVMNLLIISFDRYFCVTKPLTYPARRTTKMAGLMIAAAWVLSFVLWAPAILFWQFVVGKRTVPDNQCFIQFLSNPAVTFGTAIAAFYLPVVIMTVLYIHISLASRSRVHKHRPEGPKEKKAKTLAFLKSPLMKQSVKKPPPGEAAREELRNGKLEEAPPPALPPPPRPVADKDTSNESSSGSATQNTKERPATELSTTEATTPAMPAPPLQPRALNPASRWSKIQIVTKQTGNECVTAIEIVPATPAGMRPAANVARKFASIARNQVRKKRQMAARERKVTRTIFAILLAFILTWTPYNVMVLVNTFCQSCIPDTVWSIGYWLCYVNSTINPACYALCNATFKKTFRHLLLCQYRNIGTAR
Experiment: mAChR M4 cell-based functional assay: calcium flux (Fluo-4, FDSS), positive allosteric modulator activity on the EC20 acetylcholine response, hM4-Gqi5 CHO-K1 cells
Settings: CHO-K1, human M4; % ACh maximum at 30 μM
Please map values of Emax at 30 µM to classes as shown: LOW (below 70%), MEDIUM (70% to below 90%), HIGH (90% or more)

molecule=Cc1nc(N2CCc3ncc(N4CCN(C)C5(COC5)C4)cc3C2)c2cc(Cl)ccc2n1 class_assignment=HIGH
molecule=c1cnc2nc(N3CCOCC3)nc(N3CCc4ncc(N5CCCn6nccc65)cc4C3)c2c1 class_assignment=MEDIUM
molecule=Cc1nc(N2CCc3ncc(Nc4ccnn4C)cc3C2)c2cc(Cl)ccc2n1 class_assignment=HIGH
molecule=Fc1cc2c(N3CCc4ncc(C(F)(F)F)cc4C3)nc(N3CCOCC3)nc2cc1Cl class_assignment=LOW
molecule=Cc1nc(N2CCc3ncc(N4CCOc5ncccc54)cc3C2)c2cc(Cl)ccc2n1 class_assignment=HIGH
molecule=Cc1nc(N2CCc3ncc(-c4cn(C)nc4C)cc3C2)c2cc(Cl)ccc2n1 class_assignment=HIGH
molecule=Cc1nc(N2CCc3ncc(CC(F)(F)F)cc3C2)c2cc(Cl)ccc2n1 class_assignment=MEDIUM
molecule=Cc1ccccc1-c1cnc2c(c1)CN(c1ncnc3ccc(Cl)cc13)CC2 class_assignment=HIGH
molecule=Cc1ccc(-c2cnc3c(c2)CN(c2ncnc4ccc(F)cc24)CC3)cn1 class_assignment=HIGH
molecule="Cc1ccc2nc(NC3CCOC3)nc(N3CCc4ncc(C(F)(F)F)cc4C3)c2c1 (stereo not shown)" class_assignment=MEDIUM
molecule=Cc1nc(N2CCc3ncc(C(F)(F)F)cc3C2)c2ccc(F)cc2n1 class_assignment=LOW
molecule=Cc1ccc2nc(Cl)nc(N3CCc4ncc(C(F)(F)F)cc4C3)c2c1 class_assignment=HIGH
molecule="c1cnc2nc(NC3CCOC3)nc(N3CCc4ncc(N5CCCn6nccc65)cc4C3)c2c1 (stereo not shown)" class_assignment=MEDIUM
molecule=Cc1ccc(Oc2cnc3c(c2)CN(c2nc(C)nc4ccc(Cl)cc24)CC3)c(F)c1 class_assignment=LOW
molecule=COc1ccc2ncnc(N3CCc4ncc(Nc5cccnc5F)cc4C3)c2c1 class_assignment=HIGH
molecule=Cc1ccc2ncnc(N3CCc4ncc(Nc5ccnn5C)cc4C3)c2c1 class_assignment=HIGH
molecule=Cc1ccc2ncnc(N3CCc4ncc(Nc5cccnc5F)cc4C3)c2c1 class_assignment=HIGH
molecule=Cc1ccc2nc(N3CCOCC3)nc(N3CCc4ncc(C(F)(F)F)cc4C3)c2c1 class_assignment=LOW
molecule="COc1ccc2ncnc(N3CCc4ncc(N5CCC(C(F)(F)F)n6nccc65)cc4C3)c2c1 (stereo not shown)" class_assignment=MEDIUM
molecule=Fc1ccc2nc(C(F)(F)F)nc(N3CCc4ncc(-c5ccn(C6CC6)n5)cc4C3)c2c1 class_assignment=LOW
molecule=Cc1ncc(-c2cnc3c(c2)CN(c2nc(Cl)nc4ncccc24)CC3)s1 class_assignment=LOW
molecule="CC1CN(c2ncnc3ccc(F)cc23)Cc2cc(Nc3cccnc3)cnc21 (stereo not shown)" class_assignment=MEDIUM
molecule=Cc1ccc2ncnc(N3CCc4ncc(N5CCCn6nccc65)cc4C3)c2c1 class_assignment=HIGH
molecule=Cc1ccc(-c2cnc3c(c2)CN(c2nc(Cl)nc4cc(Cl)c(F)cc24)CC3)cn1 class_assignment=LOW
molecule=Cc1nc(N2CCc3ncc(-c4ccc(C(F)(F)F)nc4)cc3C2)c2cc(F)ccc2n1 class_assignment=MEDIUM

---

Molecular target: human mAChR M4 (Homo sapiens)
Construct: expressed in transfected cells; host or cells: CHO-K1 (ATCC), stably expressing hM4 and Gqi5
Assay: mAChR M4 cell-based functional assay: calcium flux (Fluo-4, FDSS), positive allosteric modulator activity on the EC20 acetylcholine response, hM4-Gqi5 CHO-K1 cells
Settings: CHO-K1, human M4; % ACh maximum at 30 μM
measure: Emax at 30 µM

molecule=Fc1cc2ncnc(N3CCc4ncc(Oc5ccccc5F)cc4C3)c2cc1F assayed_target="human mAChR M4 (Homo sapiens)" assay_value=80%
molecule=Cc1nc(N2CCc3ncc(-c4ccnn4C4COC4)cc3C2)c2cc(Cl)ccc2n1 assayed_target="human mAChR M4 (Homo sapiens)" assay_value=76%
molecule=C[C@@H]1CN(c2ncnc3ccc(Cl)cc23)Cc2cc(N3CCOCC3)cnc21 assayed_target="human mAChR M4 (Homo sapiens)" assay_value=107%
molecule=Cc1ccc(F)cc1-c1cnc2c(c1)CN(c1ncnc3ccc(Cl)cc13)CC2 assayed_target="human mAChR M4 (Homo sapiens)" assay_value=94%
molecule=Fc1ccc2ncnc(N3CCc4ncc(N5CCCn6nc(C7CC7)cc65)cc4C3)c2c1 assayed_target="human mAChR M4 (Homo sapiens)" assay_value=90%
molecule=Fc1cc2ncnc(N3CCc4ncc(C5CC5)cc4C3)c2cc1F assayed_target="human mAChR M4 (Homo sapiens)" assay_value=88%
molecule=Cc1nc(N2CCc3ncc(-c4cc(F)c(F)cc4C)cc3C2)c2cc(F)ccc2n1 assayed_target="human mAChR M4 (Homo sapiens)" assay_value=54%
molecule=C[C@@H]1CN(c2cnc3c(c2)CN(c2ncnc4cc(F)c(F)cc24)CC3)CCO1 assayed_target="human mAChR M4 (Homo sapiens)" assay_value=77%
molecule=Cc1nc(N2CCc3ncc(-c4cc(F)ccc4C)cc3C2)c2cc(Cl)ccc2n1 assayed_target="human mAChR M4 (Homo sapiens)" assay_value=91%
molecule=Cc1ccc(-c2cnc3c(c2)CN(c2ncnc4ccc(Cl)cc24)CC3)cn1 assayed_target="human mAChR M4 (Homo sapiens)" assay_value=79%
molecule=Cc1ccc2ncnc(N3CCc4ncc(-c5cnn(C6CC6)c5)cc4C3)c2c1 assayed_target="human mAChR M4 (Homo sapiens)" assay_value=114%
molecule="CC1CN(c2ncnc3ccc(F)cc23)Cc2cc(C(F)(F)F)cnc21 (racemic) [Compound 115]" assayed_target="human mAChR M4 (Homo sapiens)" assay_value=93%
molecule=Cc1ccc2nc(C)nc(N3CCc4ncc(N5CCCn6nccc65)cc4C3)c2c1 assayed_target="human mAChR M4 (Homo sapiens)" assay_value=101%

---

Molecular target: human mAChR M4 (Homo sapiens, UniProt P08173)
Construct: expressed in transfected cells; host or cells: CHO-K1 (ATCC), stably expressing hM4 and Gqi5
Experiment: mAChR M4 cell-based functional assay: calcium flux (Fluo-4, FDSS), positive allosteric modulator activity on the EC20 acetylcholine response, hM4-Gqi5 CHO-K1 cells
Conditions: human M4; PAM activity on EC20 acetylcholine response, calcium flux; read-out: Human M4 EC50
Description: […] Calcium flux was measured using the Functional Drug Screening System (FDSS) 6000 or 7000 (Hamamatsu Corporation, Tokyo, Japan) as an increase in the fluorescent static ratio. […] Agonist activity was analyzed as a concentration-dependent increase in calcium mobilization upon compound addition. Positive allosteric modulator activity was analyzed as a concentration-dependent increase in the EC20 acetylcholine response. […]
pEC50: −log10 of the molar value.
Below: a set of entries, each annotated with reported pEC50.
measure: pEC50

compound=Clc1ccc2ncnc(N3CCc4ncc(-c5cnn(C6CC6)c5)cc4C3)c2c1 assay_value=6.92
compound=Cc1nc(N2CCc3ncc(-c4cnc(C)s4)cc3C2)c2cc(Cl)ccc2n1 assay_value=6.57
compound=Cc1ccc2nc(C)nc(N3CCc4ncc(-c5cnc(F)cc5C)cc4C3)c2c1 assay_value=7.15
compound=CN(C)c1ccc(-c2cnc3c(c2)CN(c2ncnc4ccc(Cl)cc24)CC3)cn1 assay_value=6.37
compound=Cc1nc(N2CCc3ncc(Nc4cccnc4F)cc3C2)c2cc(Cl)ccc2n1 assay_value=6.31
compound=Cc1cc(F)ncc1-c1cnc2c(c1)CN(c1ncnc3ccc(F)cc13)CC2 assay_value=7.10
compound="CC1CCN(c2cnc3c(c2)CN(c2ncnc4ccc(F)cc24)CC3)c2ccnn21 (centres unmarked)" assay_value=7.10
compound="CC1CN(c2ncnc3ccc(F)cc23)Cc2cc(Nc3cccnc3)cnc21 (centres unmarked)" assay_value=6.96
